Where these numbers come from: ChEMBL document CHEMBL6120973

# procedureDetails: Selectivity index, ratio of CC50 for human MT4 cells to EC50 for wild type HIV-1 IIIB infected in human MT4 cellS
# details: mt4
readout: selectivity ratio

Query block: May I ask what selectivity ratio has been recorded for Cc1cn([C@H]2C[C@H](N=[N+]=[N-])[C@@H](CO)O2)c(=O)[nH]c1=O ?
Result block: > 9710

###

# procedureDetails: Cmax in male Sprague-Dawley rat at 10 mg/kg, po measured after 24 hrs by LC-MS analysis
# Format: ADME, organism-based
# details: in vivo
readout: Cmax (ng/mL)
State the answer as a number, implicitly in ng/mL.

Query block: May I ask what Cmax has been recorded for Cc1cc(-c2ccncc2)cc(C)c1Nc1nc(Nc2ccc(C#N)cc2)ncc1-c1cn[nH]c1.Cl ?
Result block: 862

###

# procedureDetails: AUC (0 to infinity) in male Sprague-Dawley rat at 1 mg/kg, iv measured after 24 hrs by LC-MS analysis
# Format: ADME, organism-based
# details: in vivo
readout: AUC(0-inf) (ng·h/mL)
State the answer as a number, implicitly in ng·h/mL.

Query block: May I ask what AUC(0-inf) has been recorded for Cc1cc(-c2ccncc2)cc(C)c1Nc1nc(Nc2ccc(C#N)cc2)ncc1-c1cn[nH]c1.Cl ?
Result block: 605

###

# experimentalSystem: Cytochrome P450 2C19 (Homo sapiens, UniProt P33261)
# Sequence (P33261 whole entry): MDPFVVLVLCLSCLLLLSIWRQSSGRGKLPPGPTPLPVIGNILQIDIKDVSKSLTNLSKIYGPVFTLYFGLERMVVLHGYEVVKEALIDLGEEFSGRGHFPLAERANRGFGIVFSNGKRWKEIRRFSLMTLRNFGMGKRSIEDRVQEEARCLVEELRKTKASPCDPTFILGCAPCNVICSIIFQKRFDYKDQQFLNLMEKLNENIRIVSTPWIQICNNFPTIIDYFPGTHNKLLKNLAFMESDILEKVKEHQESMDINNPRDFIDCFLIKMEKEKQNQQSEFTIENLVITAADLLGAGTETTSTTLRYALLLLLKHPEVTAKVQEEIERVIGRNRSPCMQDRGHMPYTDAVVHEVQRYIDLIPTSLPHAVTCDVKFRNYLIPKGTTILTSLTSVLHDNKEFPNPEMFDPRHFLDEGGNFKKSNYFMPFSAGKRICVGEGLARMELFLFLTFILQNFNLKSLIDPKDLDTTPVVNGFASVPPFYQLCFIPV
readout: IC50

Query block: Please tell me: IC50 of Cc1cc(-c2ccncc2)cc(C)c1Nc1nc(Nc2ccc(C#N)cc2)ncc1-c1cn[nH]c1 , system Cytochrome P450 2C19 (Homo sapiens, UniProt P33261)?
Result block: > 50 µM

###

# procedureDetails: Metabolic stability in human liver microsomes assessed as half-life at 0.1 uM preincubated for 10 mins followed by NADPH addition and measured upto 60 mins by LC-MS/MS analysis
# Assay type: ADME, Microsome
# details: time < 70 min
readout: half-life at 0.1 µM

Field: example entries. Status: answers known.
Query block: May I ask what half-life at 0.1 µM has been recorded for N#Cc1ccc(Nc2nccc(Nc3c(F)cc(-c4ccncc4)cc3F)n2)cc1 ?
Result block: 9.6 min

Query block: May I ask what half-life at 0.1 µM has been recorded for Cc1cc(-c2ccncc2)cc(C)c1Nc1nc(Nc2ccc(C#N)cc2)ncc1-c1cn[nH]c1 ?
Result block: 29.9 min

Query block: May I ask what half-life at 0.1 µM has been recorded for Cc1cc(/C=C/C#N)cc(C)c1Nc1ccnc(Nc2ccc(C#N)cc2)n1 [RILPIVIRINE] ?
Result block: 16 min

Further cases:
Query block: May I ask what half-life at 0.1 µM has been recorded for Cc1cc(C#N)cc(C)c1Oc1nc(Nc2ccc(C#N)cc2)nc(N)c1Br [ETRAVIRINE] ?
Result block: 64.1 min

###

# procedureDetails: Cytotoxicity against human MT4 cells assessed as reduction in cell viability measured after 5 days by MTT assay
# details: MT4 cells
Measured CC50 at 120 h accompanies every entry in the list below.

Query block: May I ask what CC50 at 120 h has been recorded for Cc1cc(-c2ccncc2)cc(C)c1Nc1nc(Nc2ccc(C#N)cc2)ncc1-c1cncc(N)c1 ?
Result block: 6.38 µM

Further cases:
Query block: May I ask what CC50 at 120 h has been recorded for Cc1cc(-c2ccncc2)cc(C)c1Nc1nc(Nc2ccc(C#N)cc2)ncc1-c1ccc(N)nc1 ?
Result block: 4.87 µM

Query block: May I ask what CC50 at 120 h has been recorded for COc1ccc(-c2cnc(Nc3ccc(C#N)cc3)nc2Nc2c(C)cc(-c3ccncc3)cc2C)cn1 ?
Result block: > 250 µM

Query block: May I ask what CC50 at 120 h has been recorded for N#Cc1ccc(Nc2ncc(-c3ccsc3)c(Nc3c(F)cc(-c4ccncc4)cc3F)n2)cc1 ?
Result block: 72.1 µM

Query block: May I ask what CC50 at 120 h has been recorded for N#Cc1ccc(Nc2ncc(-c3cncc(F)c3)c(Nc3c(F)cc(-c4ccncc4)cc3F)n2)cc1 ?
Result block: 156 µM

Query block: May I ask what CC50 at 120 h has been recorded for Cc1cc(C#N)cc(C)c1Oc1nc(Nc2ccc(C#N)cc2)nc(N)c1Br ?
Result block: > 4.61 µM

Query block: May I ask what CC50 at 120 h has been recorded for N#Cc1ccc(Nc2ncc(-c3cncc(Cl)c3)c(Nc3c(F)cc(-c4ccncc4)cc3F)n2)cc1 ?
Result block: 159 µM

Query block: May I ask what CC50 at 120 h has been recorded for N#Cc1ccc(Nc2ncc(-c3cccs3)c(Nc3c(F)cc(-c4ccncc4)cc3F)n2)cc1 ?
Result block: 23.4 µM

Query block: May I ask what CC50 at 120 h has been recorded for Cc1cc(-c2cnc(Nc3ccc(C#N)cc3)nc2Nc2c(C)cc(-c3ccncc3)cc2C)ccn1 ?
Result block: 14.9 µM

Query block: May I ask what CC50 at 120 h has been recorded for Cc1cc(-c2ccncc2)cc(C)c1Nc1nc(Nc2ccc(C#N)cc2)ncc1-c1ccco1 ?
Result block: 7.97 µM

Query block: May I ask what CC50 at 120 h has been recorded for N#Cc1ccc(Nc2ncc(-c3cccnc3)c(Nc3c(F)cc(-c4ccncc4)cc3F)n2)cc1 ?
Result block: > 41.9 µM

Query block: May I ask what CC50 at 120 h has been recorded for Cc1cc(-c2cnc(Nc3ccc(C#N)cc3)nc2Nc2c(F)cc(-c3ccncc3)cc2F)cnc1F ?
Result block: > 246 µM

Query block: May I ask what CC50 at 120 h has been recorded for COc1ncc(-c2cnc(Nc3ccc(C#N)cc3)nc2Nc2c(F)cc(-c3ccncc3)cc2F)cc1N ?
Result block: 215 µM

Query block: May I ask what CC50 at 120 h has been recorded for Cc1cc(-c2cnc(Nc3ccc(C#N)cc3)nc2Nc2c(F)cc(-c3ccncc3)cc2F)cc(C)n1 ?
Result block: 97.9 µM

Query block: May I ask what CC50 at 120 h has been recorded for CN(C)c1ccc(-c2cnc(Nc3ccc(C#N)cc3)nc2Nc2c(F)cc(-c3ccncc3)cc2F)cn1 ?
Result block: 52.9 µM

Query block: May I ask what CC50 at 120 h has been recorded for COc1cc(-c2cnc(Nc3ccc(C#N)cc3)nc2Nc2c(F)cc(-c3ccncc3)cc2F)ccn1 ?
Result block: > 246 µM

Query block: May I ask what CC50 at 120 h has been recorded for Cc1cncc(-c2cnc(Nc3ccc(C#N)cc3)nc2Nc2c(F)cc(-c3ccncc3)cc2F)c1 ?
Result block: 104 µM

Query block: May I ask what CC50 at 120 h has been recorded for Cc1cc(-c2cnc(Nc3ccc(C#N)cc3)nc2Nc2c(F)cc(-c3ccncc3)cc2F)ccn1 ?
Result block: 162 µM

Query block: May I ask what CC50 at 120 h has been recorded for N#Cc1ccc(Nc2ncc(-c3ccc(F)nc3)c(Nc3c(F)cc(-c4ccncc4)cc3F)n2)cc1 ?
Result block: 167 µM

Query block: May I ask what CC50 at 120 h has been recorded for COc1cc(-c2cnc(Nc3ccc(C#N)cc3)nc2Nc2c(C)cc(-c3ccncc3)cc2C)ccn1 ?
Result block: 59.9 µM

Query block: May I ask what CC50 at 120 h has been recorded for Cc1cc(-c2ccncc2)cc(C)c1Nc1nc(Nc2ccc(C#N)cc2)ncc1-c1ccc(N(C)C)nc1 ?
Result block: > 39 µM

Query block: May I ask what CC50 at 120 h has been recorded for Cc1cc(-c2ccncc2)cc(C)c1Nc1nc(Nc2ccc(C#N)cc2)ncc1-c1ccnc(F)c1 ?
Result block: > 256 µM

###

Measured IC50 accompanies every entry in the list below.
# experimentalSystem: Human immunodeficiency virus type 1 reverse transcriptase (Human immunodeficiency virus 1, UniProt Q72547)
# procedureDetails: Inhibition of recombinant wild type HIV-1 Reverse transcriptase incubated for 40 mins by Pico-green reagent based fluorescence analysis

Query block: May I ask what IC50 has been recorded for Cc1cc(-c2ccncc2)cc(C)c1Nc1nc(Nc2ccc(C#N)cc2)ncc1-c1ccco1 ?
Result block: 84 nM

Query block: May I ask what IC50 has been recorded for Cc1cc(-c2ccncc2)cc(C)c1Nc1nc(Nc2ccc(C#N)cc2)ncc1-c1ccnc(F)c1 ?
Result block: 111 nM

Query block: May I ask what IC50 has been recorded for N#Cc1ccc(Nc2ncc(-c3ccsc3)c(Nc3c(F)cc(-c4ccncc4)cc3F)n2)cc1 ?
Result block: 73 nM

Query block: May I ask what IC50 has been recorded for Cc1cc(-c2ccncc2)cc(C)c1Nc1nc(Nc2ccc(C#N)cc2)ncc1-c1ccsc1 ?
Result block: 72 nM

Query block: May I ask what IC50 has been recorded for Cc1cc(-c2ccncc2)cc(C)c1Nc1nc(Nc2ccc(C#N)cc2)ncc1-c1ccncc1 ?
Result block: 59 nM

Further cases:
Query block: May I ask what IC50 has been recorded for Cc1cc(-c2cnc(Nc3ccc(C#N)cc3)nc2Nc2c(C)cc(-c3ccncc3)cc2C)ccn1 ?
Result block: 127 nM

Query block: May I ask what IC50 has been recorded for COc1cc(-c2cnc(Nc3ccc(C#N)cc3)nc2Nc2c(C)cc(-c3ccncc3)cc2C)ccn1 ?
Result block: 115 nM

Query block: May I ask what IC50 has been recorded for Cn1c(Cn2ccc(C(F)(F)F)c(Oc3cc(Cl)cc(C#N)c3)c2=O)n[nH]c1=O ?
Result block: 33 nM

Query block: May I ask what IC50 has been recorded for Cc1cc(-c2ccncc2)cc(C)c1Nc1nc(Nc2ccc(C#N)cc2)ncc1-c1cncc(N)c1 ?
Result block: 73 nM
